# target_entity: recombinant H5N1 VN/04 HA trimer (hemagglutinin ectodomain of A/Vietnam/1203/2004) (influenza A virus A/Vietnam/1203/2004 (H5N1))
# protocol_details: ELISA, coated HA

[
  {
    "binder": "S29 (antibody, V domains shown) VH: EVQLVESGGGLVQPGGSLRLSCAASGFTISDYWIHWVRQAPGKGLEWVASIWPSGGYTYYADSVKGRFTISADTSKNTAYLQMNSLRAEDTAVYYCARFNWIVGHYMDYWGQGTLVTVSS VL: DIQMTQSPSSLSASVGDRVTITCRASQDVFGGVAWYQQKPGKAPKLLIYWSSWLYSGVPSRFSGSGSGTDFTLTISSLQPEDFATYYCQQYYDGPITFGQGTKVEIKR",
    "EC50": "> 10 µg/mL"
  },
  {
    "binder": "P58 (antibody, V domains shown) VH: EVQLVESGGGLVQPGGSLRLSCAASGFTIGGGGIHWVRQAPGKGLEWVAWIWPYWGYTYYADSVKGRFTISADTSKNTAYLQMNSLRAEDTAVYYCARFNSYSYSGVMDYWGQGTLVTVSS VL: DIQMTQSPSSLSASVGDRVTITCRASQDVYSYVAWYQQKPGKAPKLLISSSRGLYSGVPSRFSGSGSGTDFTLTISSLQPEDFATYYCQQYSSFPITFGQGTKVEIKR",
    "EC50": "> 10 µg/mL"
  }
]
